target: Adenosine receptor A1 (Rattus norvegicus, UniProt P25099); test: Binding affinity for adenosine A1 receptor, was assessed from the ability to displace [3H]-DPCPX (without GTP) from rat cortical membranes.
Known pKi of a selection of compounds
pKi is a log-scale quantity: -log10 of the concentration expressed in molar.

# example entries with known answers
INSERT INTO results (structure_as_smiles, target_or_test_system, recorded_result) VALUES
  ('OC[C@H]1O[C@@H](n2cnc3c(NC4CC4)nc(Cl)nc32)C[C@@H]1O', 'Adenosine receptor A1 (Rattus norvegicus, UniProt P25099)', 6.14),
  ('OC[C@H]1O[C@@H](n2cnc3c(NC4CCCCCCC4)nc(Cl)nc32)C[C@@H]1O', 'Adenosine receptor A1 (Rattus norvegicus, UniProt P25099)', 6.18),
  ('OC[C@H]1O[C@@H](n2cnc3c(NC4CCCC4)ncnc32)C[C@@H]1O', 'Adenosine receptor A1 (Rattus norvegicus, UniProt P25099)', 6.67),
  ('OC[C@H]1O[C@@H](n2cnc3c(NC4CCC4)nc(Cl)nc32)C[C@@H]1O', 'Adenosine receptor A1 (Rattus norvegicus, UniProt P25099)', 6.61);

Alright, here's another compound for you.
Query: Reported pKi for OC[C@H]1O[C@@H](n2cnc3c(NC4CCCCCC4)ncnc32)C[C@@H]1O : what is it?
Response: 6.11

====

# Ki per entry for Adenosine receptor A2a (Rattus norvegicus, UniProt P30543)
// note: answer is a bare numeric in µM

# example entries with known answers
INSERT INTO measurements (compound, recorded_result) VALUES
  ('OC[C@H]1OC(n2cnc3c(NC4CCCCCCC4)nc(Cl)nc32)[C@H](O)[C@@H]1O (stereo not given in full)', 4.23),
  ('OC[C@H]1O[C@@H](n2cnc3c(NC4CCCC4)ncnc32)[C@H](O)[C@@H]1O', 3.37);

Query: Reported Ki for OC[C@H]1O[C@@H](n2cnc3c(NC4CCCC4)cc(Cl)nc32)[C@H](O)[C@@H]1O : what is it?
Response: 2.84

Query: Now try OC[C@H]1O[C@@H](n2cnc3c(NC4CCCCCC4)ncnc32)[C@H](O)[C@@H]1O .
Response: 3.15

Query: Now try OC[C@H]1O[C@@H](n2cnc3c(NC4CC4)cc(Cl)nc32)[C@H](O)[C@@H]1O .
Response: 9.64

Query: Now try OC[C@H]1O[C@@H](n2cnc3c(NC4CCC4)ncnc32)[C@H](O)[C@@H]1O .
Response: 0.42

Query: Now try OC[C@H]1O[C@@H](n2cnc3c(NC4CCCCCCC4)ncnc32)[C@H](O)[C@@H]1O .
Response: 4.18

Query: Now try OC[C@H]1O[C@@H](n2cnc3c(NC4CCCCCC4)cc(Cl)nc32)[C@@H](O)C1O (stereo not given in full) .
Response: 4.87

Query: Now try OC[C@H]1O[C@@H](n2cnc3c(NC4CC4)ccnc32)[C@H](O)[C@@H]1O .
Response: 16.4

Query: Now try OC[C@H]1OC(n2cnc3c(NC4CCCCCCC4)cc(Cl)nc32)[C@H](O)[C@@H]1O (stereo not given in full) .
Response: 20

====

Biological target: Adenosine receptor A1 (Rattus norvegicus) (UniProt P25099)
Sequence (whole entry): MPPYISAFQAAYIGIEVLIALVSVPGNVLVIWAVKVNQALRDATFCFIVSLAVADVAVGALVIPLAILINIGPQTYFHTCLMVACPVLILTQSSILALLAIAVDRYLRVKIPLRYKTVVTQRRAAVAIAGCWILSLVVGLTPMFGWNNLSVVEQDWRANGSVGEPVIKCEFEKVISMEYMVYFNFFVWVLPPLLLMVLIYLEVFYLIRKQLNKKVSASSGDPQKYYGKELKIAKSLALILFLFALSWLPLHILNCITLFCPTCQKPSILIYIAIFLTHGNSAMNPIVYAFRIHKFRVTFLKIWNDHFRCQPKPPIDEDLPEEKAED
Measured Quantity: RIA
# output: bare number, no unit

INSERT INTO measurements (structure_as_smiles, measured_quantity, recorded_result) VALUES
  ('OC[C@H]1O[C@@H](n2cnc3c(NC4CCC4)nc(Cl)nc32)C[C@@H]1O', 'RIA', 19.5),
  ('OC[C@H]1O[C@@H](n2cnc3c(NC4CCCC4)nc(Cl)nc32)C[C@@H]1O', 'RIA', 8.3),
  ('OC[C@H]1O[C@@H](n2cnc3c(NC4CCCCC4)nc(Cl)nc32)C[C@@H]1O', 'RIA', 0),
  ('OC[C@H]1O[C@@H](n2cnc3c(NC4CCCCCC4)ncnc32)C[C@@H]1O', 'RIA', 24.9);

Query: Reported RIA for OC[C@H]1O[C@@H](n2cnc3c(NC4CCCCC4)ncnc32)C[C@@H]1O : what is it?
Response: 40.1
